Target: T1, purified human activated C1s protein, two-chain form (Homo sapiens, UniProt P09871 16-688)
T1 construct: Purified protein bought from EMD Millipore; Biotin-labeled in the clone screen; also called active C1s; native C1s protein
T1 sequence: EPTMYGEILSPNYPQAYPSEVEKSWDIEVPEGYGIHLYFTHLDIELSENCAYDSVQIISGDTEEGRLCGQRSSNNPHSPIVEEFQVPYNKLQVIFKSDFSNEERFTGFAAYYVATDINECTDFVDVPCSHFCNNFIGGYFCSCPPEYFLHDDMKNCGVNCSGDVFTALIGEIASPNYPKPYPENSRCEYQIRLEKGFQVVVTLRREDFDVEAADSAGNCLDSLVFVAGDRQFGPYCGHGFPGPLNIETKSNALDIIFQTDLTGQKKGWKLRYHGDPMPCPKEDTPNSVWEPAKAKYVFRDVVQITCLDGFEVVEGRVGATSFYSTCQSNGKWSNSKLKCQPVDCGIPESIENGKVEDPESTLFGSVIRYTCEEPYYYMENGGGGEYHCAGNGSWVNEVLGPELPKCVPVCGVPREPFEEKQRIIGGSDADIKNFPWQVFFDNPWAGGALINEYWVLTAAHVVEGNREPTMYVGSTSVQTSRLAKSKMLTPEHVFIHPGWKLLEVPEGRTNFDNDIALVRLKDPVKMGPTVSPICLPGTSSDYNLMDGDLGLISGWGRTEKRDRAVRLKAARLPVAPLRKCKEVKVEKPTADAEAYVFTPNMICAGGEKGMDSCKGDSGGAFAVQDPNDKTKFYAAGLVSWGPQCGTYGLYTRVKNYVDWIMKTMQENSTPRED
Test: bio-layer interferometry (BLI), kinetic analysis
The binders listed here are annotated with their koff.
Number in s⁻¹, nothing else.

Consider the worked cases shown below.
antibody IPN-M8 (antibody, V domains shown, Mouse monoclonal antibody (NZBW hybridoma); Same VL and VH as IPN-M2) VH: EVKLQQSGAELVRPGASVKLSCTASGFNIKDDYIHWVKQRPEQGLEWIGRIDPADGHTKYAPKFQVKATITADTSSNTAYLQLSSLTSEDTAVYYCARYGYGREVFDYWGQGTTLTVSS VL: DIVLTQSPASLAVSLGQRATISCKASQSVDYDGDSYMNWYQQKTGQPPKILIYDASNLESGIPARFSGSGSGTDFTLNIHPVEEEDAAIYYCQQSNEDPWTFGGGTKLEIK ... 0.000234
antibody IPN-M33 (antibody, V domains shown, Mouse monoclonal antibody (NZBW hybridoma)) VH: QVKLQQSGPELVKPGTSVRISCKTSGYSFTGYYMHWVKQSPEKSLEWIGEINPSIGDITYNQRFKAKATLTVDKSSSTAYMQLKSLTSEDSAVYYCASDYYGGGFAWFAYWGQGTLVTVSA VL: DIVMTQSPAIMSASSGEKVTMTCSASSSINYMHWYQQKPGTSPKRWIYDTSKLASGVPARFSGSGSGTSYSLTISSMEAEDTATYYCHQRSDSLTFGSGTKLEIK ... 0.000154
antibody IPN-M18 (antibody, V domains shown, Mouse monoclonal antibody (NZBW hybridoma)) VH: EVQLQQSGPELVKPGASVKISCKASGYSFTGYYIHWVKQSPEKSLEWIGEINPTTNDTTYNQKFKAKATLTVDKSSNTAYMQLKSLTSEDSAVYYCSRDISGPAWFAYWGQGTLVTVSA VL: DIVLTQTTAIMSASPGEKVTMTCSASSSISYMYWFQQKPGTSPKRWIYDTSKLASGVPARFSGSGSGTSYSLTISTMEAEDAATYYCHQRSSDPTFGGGTKLEINR ... 0.00102
antibody IPN-M9 (antibody, V domains shown, Mouse monoclonal antibody (NZBW hybridoma)) VH: QVQLQQPGAELVRPGASVKLSCKVSGYTFTRYWMHWVKQRPGQGLEWIGEINPSNSDTDYNEEFKSKATLTVDKSSSTAYMHLSSLTSEDSAVYYCTIDDSAYGWFAYWGQGTLVTVSA VL: DIVMTQSPAIMSASPGERVTMTCSASSSISYMHWYHQKPGTSPKRWIYDTSKLASGVPARFSGSGSGTSYSLTISSMEAEDAATYYCHQRSSFPTFGAGTKLELK ... 0.000361

IN: Return value of koff for input antibody IPN-M14 (antibody, V domains shown, Mouse monoclonal antibody (NZBW hybridoma)) VH: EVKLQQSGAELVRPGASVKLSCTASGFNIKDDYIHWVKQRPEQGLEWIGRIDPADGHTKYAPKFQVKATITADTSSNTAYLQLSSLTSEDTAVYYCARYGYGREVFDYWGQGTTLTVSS VL: DIVLTQFPTFLAVFLGQRAPISCKASQSVDYDGDSYMNWFQQKTGQPPKILIYDASNLEFGIPTRFSGSGFGTDFPLNIHPVEEEDAAIYFCQQSNEDPWTFGGGPKLEIK , no commentary.
OUT: 0.000231
